System: 616215-338-R-J1-PDC complex spheroid growth, % test/control
Assay: Anticancer human tumor 616215-338-R-J1-PDC patient-derived colon adenocarcinoma cell line growth inhibition [Asc]
Conditions: second compound 0.1 µM; first compound 0.316 µM; stronger effect = lower value
READOUT: viability, T/C (%)

>  <MOLECULE>
C#Cc1c(F)ccc2cc(O)cc(-c3ncc4c(N5CC6CCC(C5)N6)nc(OCC56CCCN5CC(F)C6)nc4c3F)c12 (stereo not drawn) + CNC(C)C(=O)NC1CN(S(=O)(=O)c2cccc(S(=O)(=O)N3CCC4CCC(C(=O)NC(c5ccccc5)c5ccccc5)N4C(=O)C(NC(=O)C(C)NC)C3)c2)CCC2CCC(C(=O)NC(c3ccccc3)c3ccccc3)N2C1=O

>  <READOUT>
viability, T/C

>  <VALUE UNITS>
%

>  <RECORDED VALUE>
105

$$$$
>  <MOLECULE>
CCN1CCN(Cc2ccc(Nc3ncc(F)c(-c4cc(F)c5nc(C)n(C(C)C)c5c4)n3)nc2)CC1 + CNC(C)C(=O)NC1CN(S(=O)(=O)c2cccc(S(=O)(=O)N3CCC4CCC(C(=O)NC(c5ccccc5)c5ccccc5)N4C(=O)C(NC(=O)C(C)NC)C3)c2)CCC2CCC(C(=O)NC(c3ccccc3)c3ccccc3)N2C1=O

>  <READOUT>
viability, T/C

>  <VALUE UNITS>
%

>  <RECORDED VALUE>
73.3

$$$$
>  <MOLECULE>
C=C(F)C(=O)N1CCN(c2nc(OCC3CCCN3C)nc3c2CCN(c2cccc4cccc(Cl)c24)C3)CC1CC#N (stereo not drawn) + CNC(C)C(=O)NC1CN(S(=O)(=O)c2cccc(S(=O)(=O)N3CCC4CCC(C(=O)NC(c5ccccc5)c5ccccc5)N4C(=O)C(NC(=O)C(C)NC)C3)c2)CCC2CCC(C(=O)NC(c3ccccc3)c3ccccc3)N2C1=O

>  <READOUT>
viability, T/C

>  <VALUE UNITS>
%

>  <RECORDED VALUE>
39.4

$$$$

====

Tested on: 616215-338-R-J1-PDC complex spheroid growth, % test/control
Assay: Anticancer human tumor 616215-338-R-J1-PDC cell line growth inhibition [Asc];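 further: spheroids exposed to agents for seven days before readout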
Details: curve of first compound; second compound 0.01 µM
Some compounds, each annotated with its measured log10 of IC50.
READOUT: log10 of IC50 (log10 of the value in nM)

>  <COMPOUND>
C=CC(=O)N1CCN(c2nc(=O)n(-c3c(C)ccnc3C(C)C)c3nc(-c4c(O)cccc4F)c(F)cc23)C(C)C1 (configuration not stated) + CNC(C)C(=O)NC1CN(S(=O)(=O)c2cccc(S(=O)(=O)N3CCC4CCC(C(=O)NC(c5ccccc5)c5ccccc5)N4C(=O)C(NC(=O)C(C)NC)C3)c2)CCC2CCC(C(=O)NC(c3ccccc3)c3ccccc3)N2C1=O

>  <TESTED ON>
616215-338-R-J1-PDC complex spheroid growth, % test/control

>  <log10 of IC50>
3.43

$$$$
>  <COMPOUND>
CCN1C(C(=O)NC23CCC(C(=O)O)(CC2)CC3)C(c2cccc(Cl)c2F)C2(C(=O)Nc3cc(Cl)ccc32)C12CCCCC2 (configuration not stated) + CNC(C)C(=O)NC1CN(S(=O)(=O)c2cccc(S(=O)(=O)N3CCC4CCC(C(=O)NC(c5ccccc5)c5ccccc5)N4C(=O)C(NC(=O)C(C)NC)C3)c2)CCC2CCC(C(=O)NC(c3ccccc3)c3ccccc3)N2C1=O

>  <TESTED ON>
616215-338-R-J1-PDC complex spheroid growth, % test/control

>  <log10 of IC50>
1.94

$$$$
>  <COMPOUND>
CCN1CCN(Cc2ccc(Nc3ncc(F)c(-c4cc(F)c5nc(C)n(C(C)C)c5c4)n3)nc2)CC1 + CNC(C)C(=O)NC1CN(S(=O)(=O)c2cccc(S(=O)(=O)N3CCC4CCC(C(=O)NC(c5ccccc5)c5ccccc5)N4C(=O)C(NC(=O)C(C)NC)C3)c2)CCC2CCC(C(=O)NC(c3ccccc3)c3ccccc3)N2C1=O

>  <TESTED ON>
616215-338-R-J1-PDC complex spheroid growth, % test/control

>  <log10 of IC50>
2.47

$$$$
>  <COMPOUND>
O=C(c1ccc(F)c(F)c1Nc1ccc(I)cc1F)N1CC(O)([C@@H]2CCCCN2)C1 + CNC(C)C(=O)NC1CN(S(=O)(=O)c2cccc(S(=O)(=O)N3CCC4CCC(C(=O)NC(c5ccccc5)c5ccccc5)N4C(=O)C(NC(=O)C(C)NC)C3)c2)CCC2CCC(C(=O)NC(c3ccccc3)c3ccccc3)N2C1=O

>  <TESTED ON>
616215-338-R-J1-PDC complex spheroid growth, % test/control

>  <log10 of IC50>
1.28

$$$$
>  <COMPOUND>
C#Cc1c(F)ccc2cc(O)cc(-c3ncc4c(N5CC6CCC(C5)N6)nc(OCC56CCCN5CC(F)C6)nc4c3F)c12 (configuration not stated) + CNC(C)C(=O)NC1CN(S(=O)(=O)c2cccc(S(=O)(=O)N3CCC4CCC(C(=O)NC(c5ccccc5)c5ccccc5)N4C(=O)C(NC(=O)C(C)NC)C3)c2)CCC2CCC(C(=O)NC(c3ccccc3)c3ccccc3)N2C1=O

>  <TESTED ON>
616215-338-R-J1-PDC complex spheroid growth, % test/control

>  <log10 of IC50>
3.40

$$$$
>  <COMPOUND>
C=C(F)C(=O)N1CCN(c2nc(OCC3CCCN3C)nc3c2CCN(c2cccc4cccc(Cl)c24)C3)CC1CC#N (configuration not stated) + CNC(C)C(=O)NC1CN(S(=O)(=O)c2cccc(S(=O)(=O)N3CCC4CCC(C(=O)NC(c5ccccc5)c5ccccc5)N4C(=O)C(NC(=O)C(C)NC)C3)c2)CCC2CCC(C(=O)NC(c3ccccc3)c3ccccc3)N2C1=O

>  <TESTED ON>
616215-338-R-J1-PDC complex spheroid growth, % test/control

>  <log10 of IC50>
2.21

$$$$
>  <COMPOUND>
Cc1nc(N2CCC3(CC2)COC(C)C3N)c(CO)nc1Sc1ccnc(N)c1Cl (configuration not stated) + CNC(C)C(=O)NC1CN(S(=O)(=O)c2cccc(S(=O)(=O)N3CCC4CCC(C(=O)NC(c5ccccc5)c5ccccc5)N4C(=O)C(NC(=O)C(C)NC)C3)c2)CCC2CCC(C(=O)NC(c3ccccc3)c3ccccc3)N2C1=O

>  <TESTED ON>
616215-338-R-J1-PDC complex spheroid growth, % test/control

>  <log10 of IC50>
2.73

$$$$
>  <COMPOUND>
COc1c(OCCCN2CCOCC2)ccc2c3n(c(=NC(=O)c4cnc(N)nc4)nc12)CCN3 + CNC(C)C(=O)NC1CN(S(=O)(=O)c2cccc(S(=O)(=O)N3CCC4CCC(C(=O)NC(c5ccccc5)c5ccccc5)N4C(=O)C(NC(=O)C(C)NC)C3)c2)CCC2CCC(C(=O)NC(c3ccccc3)c3ccccc3)N2C1=O

>  <TESTED ON>
616215-338-R-J1-PDC complex spheroid growth, % test/control

>  <log10 of IC50>
1.74

$$$$

====

Tested on: 616215-338-R-J1-PDC complex spheroid growth, % test/control
Experiment: Anticancer human tumor 616215-338-R-J1-PDC cell line growth inhibition [Asc];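 further: spheroids exposed to agents for seven days before readout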;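 on viability, T/C: 100% = DMSO vehicle control viability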
Conditions: second compound 0.316 µM; first compound 0.001 µM; stronger effect = lower value
Reported values of viability, T/C for individual entries

>  <MOLECULE>
Cn1ncnc1[C@H]1c2n[nH]c(=O)c3cc(F)cc(c23)N[C@@H]1c1ccc(F)cc1 + CNC(C)C(=O)NC1CN(S(=O)(=O)c2cccc(S(=O)(=O)N3CCC4CCC(C(=O)NC(c5ccccc5)c5ccccc5)N4C(=O)C(NC(=O)C(C)NC)C3)c2)CCC2CCC(C(=O)NC(c3ccccc3)c3ccccc3)N2C1=O

>  <VALUE UNITS>
%

>  <viability, T/C>
104

$$$$
>  <MOLECULE>
NC1CCC(NC2CC2c2ccccc2)CC1 (centres undefined) + Cc1c(S(C)(=O)=O)c(-c2cc(F)cc(N3CCN(c4ccc(NS(=O)(=O)c5ccc(NC(CCN6CCC(C(=O)OCCCP(=O)(O)O)CC6)CSc6ccccc6)c(S(=O)(=O)C(F)(F)F)c5)cc4)CC3)c2)c(-c2ccc(Cl)cc2)n1C(C)C

>  <VALUE UNITS>
%

>  <viability, T/C>
79.6

$$$$
>  <MOLECULE>
Cn1ncnc1[C@H]1c2n[nH]c(=O)c3cc(F)cc(c23)N[C@@H]1c1ccc(F)cc1 + Cc1c(S(C)(=O)=O)c(-c2cc(F)cc(N3CCN(c4ccc(NS(=O)(=O)c5ccc(NC(CCN6CCC(C(=O)OCCCP(=O)(O)O)CC6)CSc6ccccc6)c(S(=O)(=O)C(F)(F)F)c5)cc4)CC3)c2)c(-c2ccc(Cl)cc2)n1C(C)C

>  <VALUE UNITS>
%

>  <viability, T/C>
87.6

$$$$
>  <MOLECULE>
NC1CCC(NC2CC2c2ccccc2)CC1 (centres undefined) + CNC(C)C(=O)NC1CN(S(=O)(=O)c2cccc(S(=O)(=O)N3CCC4CCC(C(=O)NC(c5ccccc5)c5ccccc5)N4C(=O)C(NC(=O)C(C)NC)C3)c2)CCC2CCC(C(=O)NC(c3ccccc3)c3ccccc3)N2C1=O

>  <VALUE UNITS>
%

>  <viability, T/C>
94.2

$$$$
